Just for reference, PubChem BioAssay (Tox21) is where these values come from.

Protocol Summary: qHTS RealTime-Glo MT Cell Viability Assay in HEK293 cells - 24 hour (AID 1224886); further: nearly all actives have a fitted effect of over 50% in size; further: potency means the concentration at half of the fitted maximal effect
Conditions: RealTime-Glo luminescence; series mostly up to 76.8 µM
Excerpt: National Center for Advancing Translational Sciences [NCATS] NIH Chemical Genomics Center [NCGC] U.S. Environmental Protection Agency [EPA] National Institutes of Environmental Health Sciences [NIEHS] National Toxicology Program [NTP] U.S. Food and Drug Administration [FDA] Measure of cell viability is critical in the cell-base assay. Analysis of cell viability is necessary for the characterization of cell responses to cytotoxic drugs and environmental stress. […]
Results filed as inconclusive are left out. Calls of active or inactive are those of the source. The call rests on the fitted dose curve; in most records, active means well fitted cell-killing curve with a large enough effect in the repeat runs; inconclusive means weak or mixed curves, or effect the other way; inactive means flat fitted curve, though single readings scatter.
Assay Readout: Potency

Molecule | Assay Readout | Result
Nc1ccc2c3c(cccc13)-c1ccccc1-2 | Potency | 24.8 µM (active)
O=C1CCCc2c1cc1ccc3cccc4ccc2c1c34 | Potency | 8.82 µM (active)
C1CCCC1 | Potency | inactive
CCc1cc(Cc2cc(CC)cc(C(C)(C)C)c2O)c(O)c(C(C)(C)C)c1 | Potency | 15.5 µM (active)
NC(=NCCCCCCN=C(N)/N=C(\N)Nc1ccc(Cl)cc1)/N=C(\N)Nc1ccc(Cl)cc1 | Potency | 10.9 µM (active) [middle of 5 runs]
CC(=O)OCC(C)OC(C)=O (configuration not stated) | Potency | inactive
Oc1ccc2cc(SSc3ccc4cc(O)ccc4c3)ccc2c1 | Potency | 49 µM (active)
